Origin of values: ChEMBL document CHEMBL1154033

- systemTested: Neprilysin (Sus scrofa)
- Sequence (P19621 whole entry): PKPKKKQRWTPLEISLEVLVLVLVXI
pIC50: −log10 of the molar value.

{"columns": ["molecule", "pIC50"],
 "data": [
  ["CC(C)CC(S)CC(=O)NC(Cc1ccccc1)C(=O)NC(Cc1ccc(O)cc1)C(=O)O (stereo not given)", 7.30],
  ["O=C(CC(S)C(F)(F)F)NC(Cc1c[nH]c2ccccc12)C(=O)O (stereo not given)", 6.24],
  ["CC(C)CC(S)CC(=O)NC(Cc1ccccc1)C(=O)O (stereo not given)", 7.39],
  ["O=C(CC(S)C(F)(F)F)NC(Cc1ccc(F)cc1)C(=O)O (stereo not given)", 6.64],
  ["O=C(O)CNC(=O)C(CS)Cc1ccccc1 (stereo not given)", 8.21]
]}

* * *

- systemTested: Angiotensin-converting enzyme (Homo sapiens, UniProt P12821)
- Sequence (P12821 whole entry): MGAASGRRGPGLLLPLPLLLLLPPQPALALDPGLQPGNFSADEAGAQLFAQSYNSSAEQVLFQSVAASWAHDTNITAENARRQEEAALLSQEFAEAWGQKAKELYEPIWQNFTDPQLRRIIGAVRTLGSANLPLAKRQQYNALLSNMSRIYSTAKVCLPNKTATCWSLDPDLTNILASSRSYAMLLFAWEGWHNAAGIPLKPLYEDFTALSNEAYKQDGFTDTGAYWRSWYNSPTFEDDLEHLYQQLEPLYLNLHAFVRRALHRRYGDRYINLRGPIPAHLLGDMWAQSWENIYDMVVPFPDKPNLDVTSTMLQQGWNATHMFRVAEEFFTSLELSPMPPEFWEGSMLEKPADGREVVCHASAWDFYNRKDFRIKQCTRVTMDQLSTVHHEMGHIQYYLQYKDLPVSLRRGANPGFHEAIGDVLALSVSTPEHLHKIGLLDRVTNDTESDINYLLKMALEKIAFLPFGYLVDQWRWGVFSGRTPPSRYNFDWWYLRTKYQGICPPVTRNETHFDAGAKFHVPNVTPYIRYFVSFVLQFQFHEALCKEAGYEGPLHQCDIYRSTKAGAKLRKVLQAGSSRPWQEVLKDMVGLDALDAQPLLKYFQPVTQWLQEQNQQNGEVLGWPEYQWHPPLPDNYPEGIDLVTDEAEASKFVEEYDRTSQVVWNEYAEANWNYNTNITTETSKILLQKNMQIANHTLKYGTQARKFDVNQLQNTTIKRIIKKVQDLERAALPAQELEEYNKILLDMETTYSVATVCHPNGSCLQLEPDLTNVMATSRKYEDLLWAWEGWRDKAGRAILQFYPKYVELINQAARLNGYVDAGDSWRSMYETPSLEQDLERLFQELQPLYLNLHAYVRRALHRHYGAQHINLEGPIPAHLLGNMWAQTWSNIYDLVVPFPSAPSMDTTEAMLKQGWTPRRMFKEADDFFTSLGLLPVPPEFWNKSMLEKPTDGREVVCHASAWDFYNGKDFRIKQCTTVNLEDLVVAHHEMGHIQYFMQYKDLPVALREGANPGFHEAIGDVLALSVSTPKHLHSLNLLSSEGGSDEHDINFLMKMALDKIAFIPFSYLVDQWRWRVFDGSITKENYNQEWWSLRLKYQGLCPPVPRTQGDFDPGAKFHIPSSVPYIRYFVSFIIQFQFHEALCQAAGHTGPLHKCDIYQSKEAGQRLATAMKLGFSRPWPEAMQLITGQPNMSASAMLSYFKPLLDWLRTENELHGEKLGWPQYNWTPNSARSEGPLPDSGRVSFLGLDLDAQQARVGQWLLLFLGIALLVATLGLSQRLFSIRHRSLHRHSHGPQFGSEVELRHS
- experimentSummary: Inhibition of human recombinant ACE by fluorimetry
pIC50: −log10 of the molar value.

{"columns": ["molecule", "systemTested", "censoringQualifier", "pIC50"],
 "data": [
  ["O=C(CC(S)C(F)(F)C(F)(F)F)NC(Cc1ccccc1)C(=O)O (configuration not stated)", "Angiotensin-converting enzyme (Homo sapiens, UniProt P12821)", "=", 6.00],
  ["O=C(CC(S)C(F)(F)F)NC(Cc1ccc(O)cc1)C(=O)O (configuration not stated)", "Angiotensin-converting enzyme (Homo sapiens, UniProt P12821)", "=", 6.80],
  ["O=C(CC(S)C(F)(F)F)NC(Cc1c[nH]c2ccccc12)C(=O)O (configuration not stated)", "Angiotensin-converting enzyme (Homo sapiens, UniProt P12821)", "=", 6.40],
  ["O=C(CC(S)C(F)(F)F)NC(Cc1ccccc1)C(=O)NC(Cc1ccc(O)cc1)C(=O)O (configuration not stated)", "Angiotensin-converting enzyme (Homo sapiens, UniProt P12821)", "=", 6.55],
  ["O=C(CC(S)C(F)(F)F)NC(Cc1ccccc1)C(=O)O (configuration not stated)", "Angiotensin-converting enzyme (Homo sapiens, UniProt P12821)", "=", 6.08],
  ["CC(C)CC(S)CC(=O)NC(Cc1ccccc1)C(=O)O (configuration not stated)", "Angiotensin-converting enzyme (Homo sapiens, UniProt P12821)", "<", 5.00],
  ["O=C(CC(S)C(F)(F)F)NC(Cc1ccc(F)cc1)C(=O)O (configuration not stated)", "Angiotensin-converting enzyme (Homo sapiens, UniProt P12821)", "=", 6.52]
]}
